- tested.system: cathepsin D (Bos taurus)
- Construct: purchased SIGMA C 3138
- Sequence (P80209 45-390): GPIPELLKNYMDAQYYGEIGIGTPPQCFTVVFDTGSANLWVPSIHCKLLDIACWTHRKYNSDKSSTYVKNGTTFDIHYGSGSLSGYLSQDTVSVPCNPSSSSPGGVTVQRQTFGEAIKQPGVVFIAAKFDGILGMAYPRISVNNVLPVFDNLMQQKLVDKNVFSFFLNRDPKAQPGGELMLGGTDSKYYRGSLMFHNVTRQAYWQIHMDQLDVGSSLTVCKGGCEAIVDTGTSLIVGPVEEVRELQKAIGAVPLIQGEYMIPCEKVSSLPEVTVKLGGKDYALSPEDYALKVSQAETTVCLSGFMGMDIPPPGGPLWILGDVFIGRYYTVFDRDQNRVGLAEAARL
- experimental.details: Enzyme inhibition of cathepsin D
- Type: biochemical
- condition: pH 3.2, substrate bovine haemoglobin, 37° C., incubation 30 minutes
pIC50: −log10 of the molar value. Non-standard residues stand in square brackets, D forms with d. Residues, ends and D or L forms follow the SMILES beside them. *: point of attachment. Sta = CC(C)C[C@H](N)[C@@H](O)CC(=O)O; Cbz = O=C(OCc1ccccc1)*; Boc = CC(C)(C)OC(=O)*
Listed next: entries and their corresponding pIC50.

compound: COC(=O)C[C@H](O)[C@H](CC(C)C)NC(=O)[C@H](C)NC(=O)C[C@H](O)[C@H](CC(C)C)NC(=O)[C@H](Cc1c[nH]cn1)NC(=O)[C@H](Cc1ccccc1)NC(=O)OC(C)(C)C [SR 41395, Boc--Phe--His--Sta--Ala--Sta--OMe] (Boc-FH[Sta]A[Sta]-OMe)
pIC50: 6.06
//
compound: COC(=O)C[C@H](O)[C@H](CC(C)C)NC(=O)[C@H](C)NC(=O)C[C@H](O)[C@H](CC(C)C)NC(=O)[C@@H](NC(=O)[C@H](Cc1c[nH]c2ccccc12)NC(=O)OCc1ccccc1)C(C)C [SR 41485, Z--Trp--Val--Sta--Ala--Sta--OMe] (Cbz-WV[Sta]A[Sta]-OMe)
pIC50: 7.12
//
compound: COC(=O)C[C@H](O)[C@H](CC(C)C)NC(=O)[C@H](C)NC(=O)C[C@H](O)[C@H](CC(C)C)NC(=O)[C@H](Cc1c[nH]c2ccccc12)NC(=O)[C@H](Cc1c[nH]c2ccccc12)NC(=O)OC(C)(C)C [SR 41376, Boc--Trp--Trp--Sta--Ala--Sta--OMe] (Boc-WW[Sta]A[Sta]-OMe)
pIC50: 6.89
//
compound: CC(C)C[C@H](NC(=O)[C@H](C)NC(=O)C[C@H](O)[C@H](CC(C)C)NC(=O)[C@H](Cc1c[nH]cn1)NC(=O)[C@H](Cc1ccccc1)NC(=O)OC(C)(C)C)[C@@H](O)CC(=O)O [SR 41492, Boc--Phe--His--Sta--Ala--Sta--OH] (Boc-FH[Sta]A[Sta]-OH)
pIC50: 6.15

---

- tested.system: human plasma renin activity (Homo sapiens, UniProt P00797)
- Construct: the human plasma contain and the substrate: angiotensinogen, and the enzyme: renin; from tissue; host or cells: pool of human plasma
- Sequence (P00797 67-406): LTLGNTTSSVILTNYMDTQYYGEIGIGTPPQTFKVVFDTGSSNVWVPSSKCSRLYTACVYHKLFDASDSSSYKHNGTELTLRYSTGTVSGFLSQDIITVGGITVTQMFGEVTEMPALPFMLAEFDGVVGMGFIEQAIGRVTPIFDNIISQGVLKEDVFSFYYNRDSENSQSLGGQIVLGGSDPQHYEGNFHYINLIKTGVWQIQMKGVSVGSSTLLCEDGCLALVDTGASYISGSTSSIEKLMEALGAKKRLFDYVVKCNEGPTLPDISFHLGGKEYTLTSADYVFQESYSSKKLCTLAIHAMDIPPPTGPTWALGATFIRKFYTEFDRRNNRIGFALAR
- experimental.details: Inhibition of the human plasma renin activity (P.R.A.)
- Format: biochemical
- condition: pH 7.4, phosphate buffer, incubation 60 minutes, 37° C., pool of human plasma; read-out: INHIBITION OF HUMAN P.R.A. (IC50) pH 7.4
Non-standard residues stand in square brackets, D forms with d. Residues, ends and D or L forms follow the SMILES beside them. *: point of attachment. Sta = CC(C)C[C@H](N)[C@@H](O)CC(=O)O; Isovaleryl = CC(C)CC(=O)*; Nva = CCC[C@H](N)C(=O)O; Cbz = O=C(OCc1ccccc1)*; Boc = CC(C)(C)OC(=O)*
Each entry below carries its recorded IC50.
readout: IC50 (nM)

compound: COC(=O)C[C@H](O)[C@H](CC(C)C)NC(=O)[C@H](C)NC(=O)C[C@H](O)[C@H](CC(C)C)NC(=O)[C@H](C)NC(=O)[C@H](Cc1ccccc1)NC(=O)CC(C)C [SR 42258, iVa--Phe--Ala--Sta--Ala--Sta--OMe] (Isovaleryl-FA[Sta]A[Sta]-OMe)
measurement.unit: nM
numeric.result: 470
--
compound: CC(C)C[C@H](NC(=O)[C@H](C)NC(=O)C[C@H](O)[C@H](CC(C)C)NC(=O)[C@H](Cc1ccccc1)NC(=O)[C@H](Cc1ccccc1)NC(=O)OCc1ccccc1)[C@@H](O)CC(=O)O [SR 41225, Z--Phe--Phe--Sta--Ala--Sta--OH] (Cbz-FF[Sta]A[Sta]-OH)
measurement.unit: nM
numeric.result: 1000
--
compound: COC(=O)C[C@H](O)[C@H](CC(C)C)NC(=O)[C@H](C)NC(=O)C[C@H](O)[C@H](CC(C)C)NC(=O)[C@H](CC(C)C)NC(=O)[C@H](Cc1ccccc1)NC(=O)CC(C)C [SR 41765, iVa--Phe--Leu--Sta--Ala--Sta--OMe] (Isovaleryl-FL[Sta]A[Sta]-OMe)
measurement.unit: nM
numeric.result: 75
--
compound: COC(=O)C[C@H](O)[C@H](CC(C)C)NC(=O)[C@H](C)NC(=O)C[C@H](O)[C@H](CC(C)C)NC(=O)[C@H](Cc1ccccc1)NC(=O)[C@H](Cc1ccccc1)NC(=O)OCc1ccccc1 [SR 41320, Z--Phe--Phe--Sta--Ala--Sta--OMe] (Cbz-FF[Sta]A[Sta]-OMe)
measurement.unit: nM
numeric.result: 3500
--
compound: CC[C@H](C)[C@H](NC(=O)[C@H](Cc1ccccc1)NC(=O)OCc1ccccc1)C(=O)N[C@@H](CC(C)C)[C@@H](O)CC(=O)N[C@@H](C)C(=O)N[C@@H](CC(C)C)[C@@H](O)CC(=O)OC [SR 41477, Z--Phe--ILe--Sta--Ala--Sta--OMe] (Cbz-FI[Sta]A[Sta]-OMe)
measurement.unit: nM
numeric.result: 1000
--
compound: COC(=O)C[C@H](O)[C@H](CC(C)C)NC(=O)[C@H](C)NC(=O)C[C@H](O)[C@H](CC(C)C)NC(=O)CNC(=O)[C@H](Cc1ccccc1)NC(=O)CC(C)C [SR 42261, iVa--Phe--Gly--Sta--Ala--Sta--OMe] (Isovaleryl-FG[Sta]A[Sta]-OMe)
measurement.unit: nM
numeric.result: 4700
--
compound: CC(C)C[C@H](NC(=O)[C@H](C)NC(=O)C[C@H](O)[C@H](CC(C)C)NC(=O)[C@@H](NC(=O)[C@@H](Cc1ccccc1)NC(=O)OC(C)(C)C)C(C)C)[C@@H](O)CC(=O)O [SR 41491, Boc--(D)Phe--Val--Sta--Ala--Sta--OH] (Boc-[dF]V[Sta]A[Sta]-OH)
measurement.unit: nM
numeric.result: 4000
--
compound: CCC[C@H](NC(=O)[C@H](Cc1ccccc1)NC(=O)CC(C)C)C(=O)N[C@@H](CC(C)C)[C@@H](O)CC(=O)N[C@@H](C)C(=O)N[C@@H](CC(C)C)[C@@H](O)CC(=O)OC [SR 41995, iVa--Phe--Nva--Sta--Ala--Sta--OMe] (Isovaleryl-F[Nva][Sta]A[Sta]-OMe)
measurement.unit: nM
numeric.result: 42

---

- tested.system: human plasma renin activity (Homo sapiens)
- Construct: the human plasma contain and the substrate: angiotensinogen, and the enzyme: renin; from tissue; host or cells: pool of human plasma
- Sequence (P00797 67-406): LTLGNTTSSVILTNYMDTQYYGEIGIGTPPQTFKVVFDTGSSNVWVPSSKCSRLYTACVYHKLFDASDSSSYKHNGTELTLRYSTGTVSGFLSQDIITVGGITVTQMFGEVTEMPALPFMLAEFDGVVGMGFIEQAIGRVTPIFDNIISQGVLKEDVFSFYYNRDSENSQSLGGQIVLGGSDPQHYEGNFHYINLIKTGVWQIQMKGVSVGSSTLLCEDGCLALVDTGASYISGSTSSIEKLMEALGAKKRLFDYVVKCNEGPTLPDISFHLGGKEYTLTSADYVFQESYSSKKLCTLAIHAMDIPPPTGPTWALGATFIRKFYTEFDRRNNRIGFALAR
- experimental.details: Inhibition of the human plasma renin activity (P.R.A.)
- Format: biochemical
- condition: pH 7.4, phosphate buffer, incubation 60 minutes, 37° C., pool of human plasma; read-out: INHIBITION OF HUMAN P.R.A. (IC50) pH 7.4
pIC50: −log10 of the molar value. Non-standard residues stand in square brackets, D forms with d. Residues, ends and D or L forms follow the SMILES beside them. *: point of attachment. Benzenesulfonyl = O=S(=O)(c1ccccc1)*; Sta = CC(C)C[C@H](N)[C@@H](O)CC(=O)O; Hydrocinnamoyl = O=C(CCc1ccccc1)*; X2 = O=C(NCCS(=O)(=O)*)OCc1ccccc1; Nva = CCC[C@H](N)C(=O)O; Cbz = O=C(OCc1ccccc1)*; Boc = CC(C)(C)OC(=O)*
Catalogue of pIC50 readings, one per entry.

compound: CCC[C@H](NC(=O)[C@H](Cc1ccccc1)NC(C)=O)C(=O)N[C@@H](CC(C)C)[C@@H](O)CC(=O)N[C@@H](C)C(=O)N[C@@H](CC(C)C)[C@@H](O)CC(=O)OC [SR 41994, Ac--Phe--Nva--Sta--Ala--Sta--OMe] (Ac-F[Nva][Sta]A[Sta]-OMe)
pIC50: 6.59
--
compound: COC(=O)C[C@H](O)[C@H](CC(C)C)NC(=O)[C@H](C)NC(=O)C[C@H](O)[C@H](CC(C)C)NC(=O)[C@H](Cc1c[nH]cn1)NC(=O)[C@H](Cc1ccccc1)NS(=O)(=O)CCNC(=O)OCc1ccccc1 [SR 41748, Z--Tau--Phe--His--Sta--Ala--Sta--OCH3] (X2-FH[Sta]A[Sta]-OMe)
pIC50: 6.96
--
compound: COC(=O)C[C@H](O)[C@H](CC(C)C)NC(=O)[C@H](C)NC(=O)C[C@H](O)[C@H](CC(C)C)NC(=O)[C@H](Cc1ccccc1)NC(=O)[C@H](Cc1ccccc1)NS(=O)(=O)c1ccccc1 [SR 41938] (Benzenesulfonyl-FF[Sta]A[Sta]-OMe)
pIC50: 6.36
--
compound: COC(=O)C[C@H](O)[C@H](CC(C)C)NC(=O)[C@H](C)NC(=O)C[C@H](O)[C@H](CC(C)C)NC(=O)[C@H](Cc1ccccc1)NC(=O)[C@H](Cc1ccccc1)NC(=O)OC(C)(C)C [SR 41331, Boc--Phe--Phe--Sta--Ala--Sta--OMe] (Boc-FF[Sta]A[Sta]-OMe)
pIC50: 6.72
--
compound: COC(=O)C[C@H](O)[C@H](CC(C)C)NC(=O)[C@H](C)NC(=O)C[C@H](O)[C@H](CC(C)C)NC(=O)[C@H](Cc1ccccc1)NC(=O)[C@H](Cc1ccccc1)NC(=O)CCc1ccccc1 [SR 41768] (Hydrocinnamoyl-FF[Sta]A[Sta]-OMe)
pIC50: 6.00
--
compound: CCC[C@H](NC(=O)[C@H](Cc1ccccc1)NC(=O)OC(C)(C)C)C(=O)N[C@@H](CC(C)C)[C@@H](O)CC(=O)N[C@@H](C)C(=O)N[C@@H](CC(C)C)[C@@H](O)CC(=O)OC [SR 41996, Boc--Phe--Nva--Sta--Ala--Sta--OMe] (Boc-F[Nva][Sta]A[Sta]-OMe)
pIC50: 7.29
--
compound: COC(=O)C[C@H](O)[C@H](CC(C)C)NC(=O)[C@H](C)NC(=O)C[C@H](O)[C@H](CC(C)C)NC(=O)[C@@H](NC(=O)[C@H](Cc1ccc(O)cc1)NC(=O)OCc1ccccc1)C(C)C [SR 41476, Z--Tyr--Val--Sta--Ala--Sta--OMe] (Cbz-YV[Sta]A[Sta]-OMe)
pIC50: 5.66
